# METHOD SUMMARY: Intrinsic clearance in rat liver microsomes at 1 uM preincubated for 5 mins followed by NADPH addition measured after 3 to 45 mins by LC/MS/MS analysis
# Type: ADME
# CONDITION INFO: read-out: CLH
# Lookup of reported CLint scaled at 1 µM keyed by entry

Known CLint scaled at 1 µM results, listed for orientation:
| COMPOUND STRUCTURE STRING | CLint scaled at 1 µM |
| --- | --- |
| COc1nn2cc(-c3ccc(C(F)(F)F)cc3)nc2s1 | 46.3 to 58.3 mL/min/kg |
| COc1nn2cc(-c3ccc(OC(F)(F)F)cc3)nc2s1 | 46.3 to 58.3 mL/min/kg |

Consider the additional compound presented here.
-- ask Please give measured CLint scaled at 1 µM of the following entry: `COc1nn2cc(-c3ccc(Cl)cc3)nc2s1`
-- reply 46.3 to 58.3 mL/min/kg

* * *

# TARGET OR SYSTEM: Proteinase-activated receptor 4 (Homo sapiens, UniProt Q96RI0)
# Sequence (Q96RI0 whole entry): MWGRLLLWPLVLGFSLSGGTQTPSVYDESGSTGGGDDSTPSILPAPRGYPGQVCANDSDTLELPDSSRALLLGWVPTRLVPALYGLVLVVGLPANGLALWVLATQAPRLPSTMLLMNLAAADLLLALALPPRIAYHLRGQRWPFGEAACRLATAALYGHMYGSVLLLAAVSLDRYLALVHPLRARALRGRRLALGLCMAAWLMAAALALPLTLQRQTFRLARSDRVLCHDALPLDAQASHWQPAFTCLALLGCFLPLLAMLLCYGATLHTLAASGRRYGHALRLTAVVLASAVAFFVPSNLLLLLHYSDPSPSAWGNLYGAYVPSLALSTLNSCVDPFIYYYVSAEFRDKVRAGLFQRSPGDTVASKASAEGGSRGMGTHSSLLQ
# METHOD SUMMARY: Antagonist activity at PAR4 in human platelets assessed as inhibition of activating peptide-induced PAC1 binding response preincubated for 20 mins followed by agonist addition for 20 mins by FITC-based flow cytometric analysis
EXPERIMENTAL ENDPOINT: IC50 (nM)
The figure you give is taken to be in nM; do not add the unit.

Known IC50 results, listed for orientation:
| COMPOUND STRUCTURE STRING | UNITS LABEL | MEASURED |
| --- | --- | --- |
| COc1ccc(-c2cn3nc(OC)sc3n2)cc1 | nM | 592 |
| COc1nn2cc(-c3ccc(C#N)cc3)nc2s1 | nM | 937 |
| COc1nn2cc(-c3cccc(Cl)c3)nc2s1 | nM | 72.8 |

-- ask Please give measured IC50 of the following entry: `COc1nn2cc(-c3ccccc3)nc2s1`
-- reply 757

-- ask Please give measured IC50 of the following entry: `COc1nn2cc(-c3ccccc3Cl)nc2s1`
-- reply 437

-- ask Please give measured IC50 of the following entry: `COc1nn2cc(-c3ccc(C)cc3)nc2s1`
-- reply 57.2

* * *

# TARGET OR SYSTEM: Proteinase-activated receptor 1 (Homo sapiens, UniProt P25116)
# Sequence (P25116 whole entry): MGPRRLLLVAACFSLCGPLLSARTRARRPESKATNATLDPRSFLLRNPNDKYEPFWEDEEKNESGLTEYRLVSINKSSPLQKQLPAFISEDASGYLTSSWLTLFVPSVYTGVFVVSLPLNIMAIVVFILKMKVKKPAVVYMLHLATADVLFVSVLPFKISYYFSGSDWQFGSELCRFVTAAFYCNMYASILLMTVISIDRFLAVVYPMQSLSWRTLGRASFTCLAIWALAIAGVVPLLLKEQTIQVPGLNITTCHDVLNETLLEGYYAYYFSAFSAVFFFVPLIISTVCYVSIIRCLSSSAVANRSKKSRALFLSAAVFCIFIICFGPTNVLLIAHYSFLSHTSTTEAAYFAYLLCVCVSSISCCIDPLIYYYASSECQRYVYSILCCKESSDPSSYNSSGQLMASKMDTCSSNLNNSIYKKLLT
# METHOD SUMMARY: Antagonist activity at PAR1 in human platelets assessed as inhibition of activating peptide-induced P-selectin activation
pIC50: −log10 of the molar value.
EXPERIMENTAL ENDPOINT: pIC50

-- ask Please give measured pIC50 of the following entry: `COc1nn2cc(-c3cc4cc(OC(F)(F)F)ccc4n3C)nc2s1`
-- reply < 5.00

* * *

# METHOD SUMMARY: Fraction unbound in human plasma
# Assay type: ADME, cell-free
EXPERIMENTAL ENDPOINT: fraction unbound

-- ask Please give measured fraction unbound of the following entry: `COc1cc(OCc2csc(-c3ccccc3)n2)c2cc(-c3cn4nc(OC)sc4n3)oc2c1`
-- reply < 0.001

* * *

# TARGET OR SYSTEM: Proteinase-activated receptor 4 (Homo sapiens)
# METHOD SUMMARY: Antagonist activity at PAR4 in human platelets assessed as inhibition of gamma-thrombin-induced PAC1 binding response preincubated for 20 mins followed by agonist addition for 20 mins by FITC-based flow cytometric analysis
EXPERIMENTAL ENDPOINT: pIC50
To interpret pIC50, take it as minus log10 of a concentration measured in moles per litre.

| COMPOUND STRUCTURE STRING | pIC50 |
| --- | --- |
| COc1nn2cc(-c3cc4cc(OC(F)(F)F)ccc4n3C)nc2s1 | 6.00 |

-- ask Provide the reported pIC50 (system: Proteinase-activated receptor 4 (Homo sapiens)) for `COc1nn2cc(-c3ccc(OC(F)F)cc3)nc2s1`
-- reply 5.60

-- ask Provide the reported pIC50 (system: Proteinase-activated receptor 4 (Homo sapiens)) for `COc1nn2cc(-c3cc(C(F)(F)F)cc(C(F)(F)F)c3)nc2s1`
-- reply 5.25

* * *

# TARGET OR SYSTEM: Proteinase-activated receptor 4 (Homo sapiens, UniProt Q96RI0)
# METHOD SUMMARY: Antagonist activity at PAR4 in human platelets assessed as inhibition of activating peptide-induced PAC1 binding response preincubated for 20 mins followed by agonist addition for 20 mins by FITC-based flow cytometric analysis
# Lookup of reported IC50 keyed by entry
The figure you give is taken to be in nM; do not add the unit.

Known IC50 results, listed for orientation:
| COMPOUND STRUCTURE STRING | UNITS LABEL | MEASURED |
| --- | --- | --- |
| COc1nn2cc(-c3cccc(F)c3)nc2s1 | nM | 675 |
| COc1nn2cc(-c3ccccc3[N+](=O)[O-])nc2s1 | nM | 4840 |
| CN(C)c1nn2cc(-c3c(F)cccc3F)nc2s1 | nM | 3400 |

Consider the additional compound presented here.
-- ask Please give measured IC50 of the following entry: `COc1nn2cc(-c3ccc(S(C)(=O)=O)cc3)nc2s1`
-- reply 1200

* * *

# TARGET OR SYSTEM: Proteinase-activated receptor 4 (Homo sapiens, UniProt Q96RI0)
# METHOD SUMMARY: Antagonist activity at PAR4 (unknown origin) assessed as inhibition of activating peptide-induced receptor activation
EXPERIMENTAL ENDPOINT: IC50 (nM)
The figure you give is taken to be in nM; do not add the unit.

-- ask Provide the reported IC50 (system: Proteinase-activated receptor 4 (Homo sapiens, UniProt Q96RI0)) for `COc1nn2cc(-c3cc4ccccc4o3)nc2s1`
-- reply 1.69

* * *

# Lookup of reported Fu keyed by entry
# METHOD SUMMARY: Fraction unbound in human plasma at 5 uM after 4 hrs by equilibrium dialysis method
# Assay type: ADME, cell-free

Known Fu results, listed for orientation:
| COMPOUND STRUCTURE STRING | Fu |
| --- | --- |
| COc1nn2cc(-c3ccc(OC(F)(F)F)cc3)nc2s1 | 0.006 to 0.014 |
| COc1nn2cc(-c3ccc(C(F)(F)F)cc3)nc2s1 | 0.006 to 0.014 |

-- ask Please give measured Fu of the following entry: `COc1nn2cc(-c3ccc(Cl)cc3)nc2s1`
-- reply 0.006 to 0.014

* * *

# TARGET OR SYSTEM: Proteinase-activated receptor 4 (Homo sapiens, UniProt Q96RI0)
# METHOD SUMMARY: Antagonist activity at PAR4 (unknown origin) assessed as inhibition of gamma-thrombin-induced receptor activation
EXPERIMENTAL ENDPOINT: IC50 (µM)
The figure you give is taken to be in µM; do not add the unit.

-- ask Provide the reported IC50 (system: Proteinase-activated receptor 4 (Homo sapiens, UniProt Q96RI0)) for `COc1nn2cc(-c3cc4ccccc4o3)nc2s1`
-- reply 0.0588

* * *

# TARGET OR SYSTEM: Proteinase-activated receptor 1 (Homo sapiens)
# METHOD SUMMARY: Antagonist activity at PAR1 in human platelets assessed as inhibition of activating peptide-induced PAC1 binding response
pIC50: −log10 of the molar value.
EXPERIMENTAL ENDPOINT: pIC50

-- ask Please give measured pIC50 of the following entry: `COc1nn2cc(-c3cc4cc(OC(F)(F)F)ccc4n3C)nc2s1`
-- reply < 5.00
